Source of measurements: paper PMC5540273

System: DDR1;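 also: KINOMEscan kinase panel screen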
Details: concentration: 1 μM, replicates: in singlicate; n = 1
Reported Property: %Inh

Please review the following examples before continuing.
[
  {
    "Compound": "COc1cc2ncn(-c3cc(OCC4CCCO4)c(C(N)=O)s3)c2cc1OC (stereo not shown)",
    "%Inh": "0%"
  },
  {
    "Compound": "Fc1cccc(COc2nnc(-c3ccc4c(c3)CCO4)o2)c1",
    "%Inh": "0%"
  },
  {
    "Compound": "Cc1cc(-c2ccc3c(c2)CC[C@@H](N[C@@H](C)c2ccccc2)C3)cnc1N.Cl",
    "%Inh": "14%"
  }
]

We next turn to a different compound, shown below.
Ask: Could you share which %Inh value was measured for COc1cccc(NC(=O)NC2CCN(c3ccnc(Nc4ccc(F)cc4)n3)C2)c1 (stereo not shown) ?
Reply: 17%
